- EXPERIMENTAL SYSTEM: T1, recombinant human ASM protein (human, UniProt P17405 47-630)
- T1 construct: Recombinant human ASM in solution; also called acid sphingomyelinase (ASM) protein
- T1 sequence: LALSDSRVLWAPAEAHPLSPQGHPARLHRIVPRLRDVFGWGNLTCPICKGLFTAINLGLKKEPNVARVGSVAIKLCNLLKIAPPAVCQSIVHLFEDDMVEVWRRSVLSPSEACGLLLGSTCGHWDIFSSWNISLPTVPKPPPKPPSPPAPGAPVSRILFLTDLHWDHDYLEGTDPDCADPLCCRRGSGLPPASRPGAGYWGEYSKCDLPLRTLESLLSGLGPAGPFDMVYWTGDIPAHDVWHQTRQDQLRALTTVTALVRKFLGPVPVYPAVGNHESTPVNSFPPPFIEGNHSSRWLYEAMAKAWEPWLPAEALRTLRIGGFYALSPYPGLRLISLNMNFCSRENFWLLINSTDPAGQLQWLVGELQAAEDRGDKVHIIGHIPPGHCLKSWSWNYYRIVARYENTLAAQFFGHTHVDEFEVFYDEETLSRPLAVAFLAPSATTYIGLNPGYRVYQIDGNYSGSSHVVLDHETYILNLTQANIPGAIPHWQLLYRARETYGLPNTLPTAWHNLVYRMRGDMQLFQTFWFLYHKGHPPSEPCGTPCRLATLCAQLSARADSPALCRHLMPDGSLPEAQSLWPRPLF
- TEST PROTOCOL: BLI (Octet), antibody on AHC sensor
pKd: −log10 of the molar value.
Reported pKd by item:

BINDER	pKd
#9104v-H27 (antibody, human IgG4 S228P, lambda, V domains shown, Full-length IgG, lambda) VH: EVQLLESGGGLVQPGGSLRLSCAASGFTFSNYYMSWVRQAPGKGLEWVSGTYYDSGYVYYADSVKGRFTISRDNSKNTLYLQMNSLRAEDTAVYYCARDTPGFDYWGQGTLVTVSS VL: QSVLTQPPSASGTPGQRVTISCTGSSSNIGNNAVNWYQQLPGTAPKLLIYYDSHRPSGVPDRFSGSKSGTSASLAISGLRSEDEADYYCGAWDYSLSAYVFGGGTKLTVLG	9.22
#9104v-H14 (antibody, human IgG4 S228P, lambda, V domains shown, Full-length IgG, lambda) VH: EVQLLESGGGLVQPGGSLRLSCAASGFTFSNYYMSWVRQAPGKGLEWVSGIYYGSGKPYYADSVKGRFTISRDNSKNTLYLQMNSLRAEDTAVYYCARDTPGFDYWGQGTLVTVSS VL: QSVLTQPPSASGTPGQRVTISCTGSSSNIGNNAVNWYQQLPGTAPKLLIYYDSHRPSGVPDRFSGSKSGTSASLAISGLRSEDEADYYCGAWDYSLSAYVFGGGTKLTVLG	9.07
